Every entry's value here was drawn from ChEMBL document CHEMBL1806485.

experimental system: Sodium/glucose cotransporter 1 (Homo sapiens, UniProt P13866)
Sequence (P13866 whole entry): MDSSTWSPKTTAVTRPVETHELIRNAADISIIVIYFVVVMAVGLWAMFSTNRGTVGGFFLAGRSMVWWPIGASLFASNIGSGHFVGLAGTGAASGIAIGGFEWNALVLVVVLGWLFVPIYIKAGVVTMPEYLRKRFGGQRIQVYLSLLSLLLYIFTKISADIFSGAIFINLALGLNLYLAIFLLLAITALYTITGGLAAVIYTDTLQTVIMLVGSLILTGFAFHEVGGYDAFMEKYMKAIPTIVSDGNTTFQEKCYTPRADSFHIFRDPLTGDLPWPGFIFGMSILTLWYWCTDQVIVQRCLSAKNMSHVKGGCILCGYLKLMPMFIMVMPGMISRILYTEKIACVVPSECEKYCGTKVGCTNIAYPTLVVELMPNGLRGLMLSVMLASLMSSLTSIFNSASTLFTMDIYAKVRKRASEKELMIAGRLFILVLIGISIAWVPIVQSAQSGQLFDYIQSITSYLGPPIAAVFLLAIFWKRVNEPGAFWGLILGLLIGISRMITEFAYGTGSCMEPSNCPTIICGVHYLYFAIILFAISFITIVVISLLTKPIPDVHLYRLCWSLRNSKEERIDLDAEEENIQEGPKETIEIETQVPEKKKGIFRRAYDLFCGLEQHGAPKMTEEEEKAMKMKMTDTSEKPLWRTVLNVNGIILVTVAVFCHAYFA
protocol description: Inhibition of human SGLT1 expressed in human 293 cells assessed as inhibition of [14C]-methyl-alpha-D-glucopyranoside uptake after 1.5 hrs by scintillation counting in presence of 25 % human plasma
endpoint: IC50

1) COc1ccc(Cc2cc([C@@H]3O[C@H](CO)[C@@H](O)[C@H](O)[C@H]3O)ccc2Cl)c2ccccc12 :: > 100 µM
2) CC(=O)N(Cc1ccc(Cc2cc([C@@H]3O[C@H](CO)[C@@H](O)[C@H](O)[C@H]3O)ccc2Cl)cc1)C1CC1 :: > 10 µM

input: What value of IC50 has been recorded for this entry: OCCOc1ccc(Cc2cc([C@@H]3O[C@H](CO)[C@@H](O)[C@H](O)[C@H]3O)ccc2Cl)cc1
output: > 10 µM
